- Test system: SN12C
- protocol.description: NCI tumour cell line growth inhibition, 48 h
The source made the active and inactive calls. Cut-off read from the data, not from the text of the source: active = GI50 up to about 1.1 µM and inactive = higher.
Pick one and only one: true (1) for active, false (0) for inactive

Worked set:
Cc1cc(O)nc(NNC(C#N)c2ccccc2O)n1 (centres undefined); false (0)
COc1ccc2[nH]c(S(=O)(=O)N3CC(CCl)c4ccc(N)cc43)cc2c1 (centres undefined); true (1)
O=C1C(NCCc2ccc(O)c(O)c2)=CC(=O)c2ncccc21; false (0)
COc1cc2c(c(OC)c1OC)-c1ccc(SC)c(=O)cc1C(CC(=O)Oc1cccc(F)c1)C2 (centres undefined); true (1)
COc1ccc(-c2cc(O)c3c(C)cc(C)nc3n2)cc1; false (0)
COC(=O)C1=COC2OC3CC1C2C(C)O3 (centres undefined); false (0)
CC1OC(NCCNCCNC2OC(C)C(O)C(O)C2O)C(O)C(O)C1O (centres undefined); false (0)
COc1cc[n+](C)cc1; false (0)
COc1cccc(C2c3cc4c(cc3OC(Nc3ccccc3)C2C)OCO4)c1O (centres undefined); false (0)
Fc1ccc2c3c([nH]c2c1)CCN(Cc1ccccc1)C3; false (0)

Fill in: this test's call for `Nc1nn2c(=O)c3ccccc3nc2s1` is ___
false (0)

// param item: `COc1ccc(OC)c(CCc2ccccc2CC(=O)O)c1` ; yields the recorded call
false (0)

I would be grateful if you could indicate the recorded call for `O=C1Nc2ccccc2/C1=C\c1c(Cl)nc2n1CCS2` .
false (0)

Can you look up the reported call for Cc1ccc(C2SC(=N)Nc3c2c(C)nn3C(=O)c2ccncc2)cc1 (centres undefined) for me?
false (0)

###

- Test system: KM-20L2
- protocol.description: NCI tumour cell line growth inhibition, 48 h
Activity calls are given as the source filed them. Rule as the data show it: active = GI50 up to about 1.1 µM and inactive = higher.
measured.property: GI50

Example entries and their recorded answers appear below.
CCC[S+]([O-])c1nc(COC(=O)NC)c(COC(=O)NC)n1C (stereo not drawn); > 100 µM (inactive)
CS(=O)(=O)c1ccc(COP(N)(=O)N(CCCl)CCCl)cc1 (stereo not drawn); > 100 µM (inactive)
CC(=O)O[C@H]1C(=O)[C@@]2(C)C(C(OC(=O)c3ccccc3)[C@]3(O)CC(OC(=O)C(O)C(NC(=O)c4ccc(C(F)(F)F)cc4)c4ccccc4)C(C)=C1C3(C)C)[C@]1(OC(C)=O)CO[C@@H]1C[C@@H]2O (stereo partly drawn); 0.0767 µM (active)

The recorded GI50 for entry N#C/C(=C\c1ccc(C(O)P(=O)(O)O)cc1)C(N)=O (stereo not drawn) equals > 100 µM (inactive)

C[C@H]1COC2(c3ccccc3)CCC(=O)N12 (stereo partly drawn) has a reported GI50 of > 100 µM (inactive)

###

Measured GI50 accompanies every entry in the list below.
- System: IGROV-1
- protocol.description: NCI tumour cell line growth inhibition, 48 h
Active and inactive are the calls of the source. No stated cut-off is given here; in the data, active = GI50 up to about 1.1 µM and inactive = higher.

CN1C(=O)C(Cl)(C(Cl)(Cl)S(=O)(=O)O)C(=O)c2ccccc21.c1ccncc1 (stereo not given); > 100 µM (inactive)
O=C1c2ccccc2C(=O)c2c(OCCOCCO)cccc21; 45.5 µM (inactive)
O=c1cc(O)ccn1C1C=C(CO)C(O)C1O (stereo not given); > 625 µM (inactive)

Reported GI50 ( `COc1ccc(/C=C2\C[C@H]3[C@@H]4CCC5=C[C@@H](N6CCCC6)CC[C@]5(C)[C@H]4CC[C@]3(C)[C@H]2O)cc1` ) = 4.28 µM (inactive)

According to the records, this molecule `CC1(C)CCC[C@]2(C)[C@@H](C=O)C(C=O)=CC[C@@H]12` displays GI50 of 19 µM (inactive)
